Test system: KRAS-mutant PDC tumor spheroid with HUVEC/MSC, viability
test.protocol: Anticancer human tumor 327498-153-R-J2-PDC patient-derived uterine carcinosarcoma cell line growth inhibition [KRAS2]
test.settings: curve of first compound; second compound 1 µM
Reported IC50 by item:
Report the value in nM with no unit label.

Here are 2 compounds together with their reported answers.
| compound | target.or.test.system | IC50 [nM] |
| --- | --- | --- |
| CC1OCC2(CCN(c3cnc(Sc4ccnc(N)c4Cl)c(N)n3)CC2)C1N (stereo not given) + CNCc1ccccc1-c1csc(C(C)Nc2nc(C)nc3cc(OC)c(OC)cc23)c1 | KRAS-mutant PDC tumor spheroid with HUVEC/MSC, viability | 100 |
| COc1cc2nccc(Oc3ccc(NC(=O)C4(C(=O)Nc5ccc(F)cc5)CC4)cc3)c2cc1OC + COc1cc2nc(C)nc(NC(C)c3cc(N)cc(C(F)(F)F)c3)c2cc1OC1CCOC1 | KRAS-mutant PDC tumor spheroid with HUVEC/MSC, viability | 379 |

Please find the next compound below.
Indicate its recorded IC50; the compound in question is CC(=O)Nc1cccc(-n2c(=O)n(C3CC3)c(=O)c3c(Nc4ccc(I)cc4F)n(C)c(=O)c(C)c32)c1 + C=CC(=O)N1CCN(c2nc(=O)n(-c3c(C)ccnc3C(C)C)c3nc(-c4c(O)cccc4F)c(F)cc23)C(C)C1
4.92

====

System: KRAS-mutant PDC tumor spheroid with HUVEC/MSC, viability
test.protocol: Anticancer human tumor 327498-153-R-J2-PDC cell line growth inhibition [KRAS2];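 further: spheroids exposed to agents for seven days before reading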;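 on viability, T/C: 100% = DMSO vehicle wells so lower means fewer viable cells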
test.settings: second compound 1 µM; first compound 0.00316 µM; stronger effect = lower value
measured.endpoint: viability, T/C (%)
Report the value in % with no unit label.

Indicate its recorded viability, T/C; the compound in question is CN(C)C/C=C/C(=O)Nc1cc2c(Nc3ccc(F)c(Cl)c3)ncnc2cc1O[C@H]1CCOC1 + C=CC(=O)N1CCN(c2nc(=O)n(-c3c(C)ccnc3C(C)C)c3nc(-c4c(O)cccc4F)c(F)cc23)C(C)C1
92.8

Indicate its recorded viability, T/C; the compound in question is CCN1CCN(Cc2ccc(Nc3ncc(F)c(-c4cc(F)c5nc(C)n(C(C)C)c5c4)n3)nc2)CC1 + COc1cc2nc(C)nc(NC(C)c3cc(N)cc(C(F)(F)F)c3)c2cc1OC1CCOC1
51.8

Indicate its recorded viability, T/C; the compound in question is Cn1ncnc1[C@H]1c2n[nH]c(=O)c3cc(F)cc(c23)N[C@@H]1c1ccc(F)cc1 + COc1cc2nc(C)nc(NC(C)c3cc(N)cc(C(F)(F)F)c3)c2cc1OC1CCOC1
50

====

Tested on: KRAS-mutant PDC tumor spheroid with HUVEC/MSC, viability
test.protocol: Anticancer human tumor 327498-153-R-J2-PDC cell line growth inhibition [KRAS2];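 further: spheroids exposed to agents for seven days before reading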;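 on viability, T/C: 100% = DMSO vehicle wells so lower means fewer viable cells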
test.settings: second compound 0.0316 µM; first compound 0.316 µM; stronger effect = lower value
Text: Multicellular complex tumor spheroid response to RAS pathway inhibitors in combination with a targeted agents in patient-derived cell lines with oncogenic KRAS variants from multiple cancer types A high-throughput screen of multi-cell type tumor spheroids was designed to identify active combinations of targeted small molecules and KRAS pathway inhibitors. […] Compounds. […] If the clinical Cmax for an agent had not been determined, the highest concentration tested was 10 microM. […]
measured.endpoint: viability, T/C (%)
Report the value in % with no unit label.

| molecule | viability, T/C (%) |
| --- | --- |
| COc1cc(Nc2ncc3c(n2)-c2ccc(Cl)cc2C(c2c(F)cccc2OC)=NC3)ccc1C(=O)O + C=CC(=O)N1CCN(c2nc(OCC3CCCN3C)nc3c2CCN(c2cccc4cccc(C)c24)C3)CC1CC#N | 11.5 |
| CC1(C)CCC(CN2CCN(c3ccc(C(=O)NS(=O)(=O)c4ccc(NCC5CCOCC5)c([N+](=O)[O-])c4)c(Oc4cnc5[nH]ccc5c4)c3)CC2)=C(c2ccc(Cl)cc2)C1 + C=CC(=O)N1CCN(c2nc(OCC3CCCN3C)nc3c2CCN(c2cccc4cccc(C)c24)C3)CC1CC#N | 72.7 |
| CC(=O)OC12COC1CC(O)C1(C)C(=O)C(O)C3=C(C)C(OC(=O)C(O)C(NC(=O)OC(C)(C)C)c4ccccc4)CC(O)(C(OC(=O)c4ccccc4)C21)C3(C)C (configuration not stated) + C=CC(=O)N1CCN(c2nc(OCC3CCCN3C)nc3c2CCN(c2cccc4cccc(C)c24)C3)CC1CC#N | 6.19 |

Indicate its recorded viability, T/C; the molecule in question is COc1cc2nccc(Oc3ccc(NC(=O)C4(C(=O)Nc5ccc(F)cc5)CC4)cc3)c2cc1OC + C=CC(=O)N1CCN(c2nc(OCC3CCCN3C)nc3c2CCN(c2cccc4cccc(C)c24)C3)CC1CC#N
55.6

Indicate its recorded viability, T/C; the molecule in question is O=C(c1cc(Cc2n[nH]c(=O)c3ccccc23)ccc1F)N1CCN(C(=O)C2CC2)CC1 + C=CC(=O)N1CCN(c2nc(OCC3CCCN3C)nc3c2CCN(c2cccc4cccc(C)c24)C3)CC1CC#N
104
